Data origin: patent US20230312709A1

Would you kindly list Kd for each of these binders?
- assayed_target: T1, hCD47-ECD-HIS recombinant protein (human, UniProt Q08722 19-139, limits assumed)
- T1 construct: extracellular domain; also called hCD47 antigen; CD47 antigen
- T1 sequence (Q08722 other isoform, or with tags, fused parts or gaps limits assumed): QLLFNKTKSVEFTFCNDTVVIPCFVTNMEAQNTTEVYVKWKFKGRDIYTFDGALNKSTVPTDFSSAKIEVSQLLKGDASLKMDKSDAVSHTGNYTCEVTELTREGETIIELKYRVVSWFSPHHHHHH
- protocol: BLI (ForteBio), antibody on AHC sensor, 100 nM CD47 antigen, 1:1 model
# output: bare number, implied unit nM

Would you mind telling me what Kd value was observed for 7A11H33 (antibody, V domains shown, also called CD47 antibody) VH: QVQLVQSGAEVKKPGSSVKVSCKASGSSFTSNWMNWVRQAPGQGLEWIGMIHPSDSETRLNQKFKDRVTITADKSTSTAYMELSSLRSEDTAVYYCARGTTVVDAFAYWGQGTTVTVSS VL: DIQMTQSPSSLSASVGDRVTMTCKSSQSLLNTRTRKNYLAWYQQKPGKAPKLLIYWASTRESGVPSRFSGSGSGTDFTLTISSLQPEDFATYYCKQSYNLRTFGGGTKLEIK ?
0.36

Same question, 7A11H14 (antibody, V domains shown, also called CD47 antibody) VH: QVQLVQPGAEVKKPGASVKLSCKASGSSFTSNWMNWVRQAPGQGLEWIGMIHPSDSETRLNQKFKDRATLTVDKSTSTAYMELSSPRSEDTAVYYCARGTTVVDAFAYWGQGTTVTVSS VL: DIVMTQSPDSLAVSLGERATMNCKSSQSLLNTRTRKNYLAWYQQKPGQPPKLLIYWASTRESGVPDRFSGSGSGTDFTLTISSLQAEDVAVYYCKQSYNLRTFGGGTKLEIK this time
0.562

Entry 7A11H35 (antibody, V domains shown, also called CD47 antibody) VH: QVQLVQSGAEVKKPGSSVKVSCKASGSSFTSNWMNWVRQAPGQGLEWIGMIHPSDSETRLNQKFKDRVTITADKSTSTAYMELSSLRSEDTAVYYCARGTTVVDAFAYWGQGTTVTVSS VL: EIVMTQSPPTLSLSPGERVTMSCKSSQSLLNSRTRKNYLAWYQQKPGQAPRLLIYWASTRESGIPARFSGSGSGTDFTLTISSLQPEDFAVYYCKQSYNLRTFGGGTKLEIK please
0.881

Try 7A11H22 (antibody, V domains shown, also called CD47 antibody) VH: QVQLVQSGAEVKKPGASVKVSCKASGSSFTSNWMNWVRQAPGQGLEWIGMIHPSDSETRLNQKFKDRATLTVDKSTSTAYMELSSLRSEDTAVYYCARGTTVVDAFAYWGQGTTVTVSS VL: DIQMTQSPSSLSASVGDRVTMTCKSSQSLLNSRTRKNYLAWYQQKPGKAPKLLIYWASTRESGVPSRFSGSGSGTDFTLTISSLQPEDFATYYCKQSYNLRTFGGGTKLEIK next.
0.74

Same for 7A11H42 (antibody, V domains shown, also called CD47 antibody) VH: QVQLVQSGAEVKKPGSSVKVSCKASGSSFTSNWMNWVRQAPGQGLEWIGMIHPSDSETRLNQKFQGRVTITADKSTSTAYMELSSLRSEDTAVYYCARGTTVVDAFAYWGQGTTVTVSS VL: DIQMTQSPSSLSASVGDRVTMTCKSSQSLLNSRTRKNYLAWYQQKPGKAPKLLIYWASTRESGVPSRFSGSGSGTDFTLTISSLQPEDFATYYCKQSYNLRTFGGGTKLEIK
0.309
